Each recorded value in this set is attributed to PubChem BioAssay (NCI).

system: HT29 colon; assay: NCI-60 one-dose screen, 48 h (100 = growth as untreated, 0 = no growth, -100 = all killed); details: 10 µM unless noted
About 83,000 compounds went through this panel and 20% of them were active in at least one assay; those are over-represented in the sample as a whole.
Classify by growth. Ranges: bottom bin (below 20%), middle bin (20% to below 90%), top bin (90% or more)

1. CC/C=C\C[C@H](O)C/C=C1/C(=O)C(Cl)=C[C@@H]1C/C=C\CCCC(=O)OC; bottom bin
2. O=S(=O)(NCCCNc1nccc(-c2c(-c3ccc(O)cc3)nc3sccn23)n1)c1ccc(F)cc1; bottom bin
3. COc1ccccc1CNCCCN1C(=O)c2ccc3c4c(ccc(c24)C1=O)C(=O)N(CCCNCCCCNCCCCN)C3=O; bottom bin
4. Cc1ccnc2nc(C(=O)OCC(=O)Nc3ccc(-c4ccccc4)cc3)nn12; top bin
5. COc1ccc(OC)c(-c2ccc(-c3ccccc3N)c3[nH]c4ccccc4c23)c1; middle bin
6. COc1ccc(NC(=O)/N=c2\oc3c(OC)cccc3cc2-c2cc3ccccc3[nH]2)cc1; middle bin
7. CN1CCN(c2ccc3cc(-c4nc5ccccc5[nH]4)c(=O)oc3c2)CC1; top bin
8. COc1ccc(C2CC(c3cccs3)=NN2c2ccc(S(=O)(=O)NC(=O)NCc3cccc(OC)c3)cc2)cc1 (centres undefined); top bin
9. CCN(CC)P(=O)(N(CC)CC)N(CCCSC/C=C(\C)CC/C=C(\C)CCC=C(C)C)CCCN1CCN(C)CC1; top bin
10. Cc1oc2nc[nH]c(=O)c2c1C(=O)/C=C/c1ccc(Cl)cc1; bottom bin
11. CC(C)(C)OC(=O)N[C@@H](Cc1ccccc1)C(=O)N(Cc1ccccc1)C1(C(=O)NCc2ccccc2)CCN(Cc2ccccc2)CC1; middle bin
12. NC(C(=O)O)C(O)c1ccc(OCc2ccccc2)c(OCc2ccccc2)c1 (centres undefined); top bin
13. CC/C(=C(\c1ccc(O)cc1)c1ccc(OCCN(C)CCN(C)C(=O)CCC(=O)c2c(C)[nH]c(/C=C3\N=C(c4ccc[nH]4)C=C3OC)c2C)cc1)c1ccccc1; bottom bin
14. COc1ccc(/C(=N/O)c2cc(F)c(F)c(OC)c2F)cc1O; middle bin
15. CC(C)(C)c1cn2cccc(C(=O)N3CCN(CC(=O)Nc4ccc(Cl)cc4C(=O)c4ccccc4Cl)CC3)c2n1; middle bin
16. COc1ccc(/C=C/c2cc(N3CCOCC3)c3cc(F)c(F)cc3n2)cc1OC; middle bin
17. CN(C)c1ccc(/C=C\N=Nc2ccc(Br)cc2)cc1; middle bin
18. CC(=O)Nc1nc(C(=O)N2N=C(C)/C(=C/c3cccs3)C2=O)cs1; top bin

====

// reported growth per item
tested on: HCC-2998 colon; test: NCI-60 one-dose screen, 48 h (100 = growth as untreated, 0 = no growth, -100 = all killed); conditions: 10 µM unless noted
Compounds without any hit were thinned out: in the full panel of roughly 83,000, 20% have a hit.
endpointName: growth (%)

1. CCCCCCCCCCCCOB(OCCCCCCCCCCCC)OCCCCCCCCCCCC; 91.6
2. COc1cc2c(cc1OCCCCn1c(-c3cc(=O)c4ccccc4o3)nc3ccccc31)N=C[C@@H]1CCCN1C2=O; 128
3. COC(=O)[C@H]1[C@H](OC)[C@@H](OC(=O)/C=C/c2ccncc2)CC2CN3CCc4c([nH]c5cc(OC)ccc45)[C@@H]3C[C@@H]21 (stereo partly drawn); 122
4. COc1ccc(Cl)cc1NC(N)=S; 102
5. Cc1ccc(C2=NN(c3ccc(S(N)(=O)=O)cc3)C(c3cn(-c4ccccc4)nc3-c3ccccc3)C2)cc1 (stereo not drawn); 118
6. Cc1ccccc1C(=O)c1ccccc1C(=O)O; 105
7. CC[C@H](C)[C@@H]1NC(=O)[C@H]([C@@H](C)O)NC(=O)C(Cc2ccccc2)NC(=O)[C@@H]2CCCN2C(=O)C(C(C)C)NC(=O)C(Cc2ccccc2)NC(=O)CNC(=O)[C@@H]2CCCN2C1=O (stereo partly drawn); 88.2
8. COc1cc(NC(=O)CSc2nc3ccc(C)cc3c(=O)n2-c2ccccc2)cc(OC)c1OC; 97.5

====

tested on: LOX IMVI melanoma; experiment: NCI-60 one-dose screen, 48 h; conditions: 10 µM unless noted
This is part of a sample that, as a whole, favours compounds with a hit. Of some 83,000 tested, about 20% had one in any assay. The source made the active and inactive calls. Rule for the calls: active = growth percent below 10; inactive = the rest.
Outcomes: active, inactive

1) COc1cc2nc(Cl)nc(NCCO)c2cc1OC; inactive
2) Cc1ccc(S(=O)(=O)N2CCC(C(=O)Nc3ccc(F)cc3F)CC2)cc1; inactive
3) CC(C)(C)c1cc(-c2nc3ccc(N4CCN(CCO)CC4)cc3[nH]2)cc(C(C)(C)C)c1O; active
4) COc1cc(-c2cc(/C=C3\CCCCC3=O)[nH]n2)cc(OC)c1OC; inactive
5) COc1cc(/C=C/C(=O)c2ccccc2O)ccc1OCCCOc1cc2c(cc1OC)C(=O)N1CCC[C@H]1C=N2; active

====

tested on: MCF7 breast; assay: NCI-60 one-dose screen, 48 h (100 = growth as untreated, 0 = no growth, -100 = all killed); details: 10 µM unless noted
The panel holds about 83,000 compounds, 20% with a hit somewhere; the sample as a whole holds those more often.
// reported growth per item
endpointName: growth (%)

1) O=P([O-])(O)OP(=O)([O-])O.[NH-][C@H]1CCCC[C@@H]1[NH-].[OH-].[OH-].[Pt+4]; 96.7
2) COc1ccc(-c2nc(-c3ccccc3)c(-c3ccccc3)n2C2CC2)cc1OC1CCCCC1; 52
3) COc1cccc(/C=C/C(=O)c2sc(Nc3ccc(O)cc3)nc2C)c1; 72.2
4) OC1CC2c3ccccc3C1c1ccccc12 (stereo unspecified); 98.8
5) COc1ccc(/C=C/C(=O)c2cccc(B(O)O)c2)cc1O; 24.3
6) COc1ccc(-c2nc3sccn3c2-c2ccnc(NCCCNS(=O)(=O)c3ccc(C)cc3)n2)cc1; 34.3
7) CSc1ccccc1C#C/C=C\C#Cc1ccccc1N1CCCCC1=O; 94.9
8) O=C(N/N=C/c1c(Cl)cccc1Cl)c1ccccc1Nc1ccnc(C(F)(F)F)c1; 46
9) CCC(c1ccc(OC)cc1)C(CC)c1ccc(O)c(CN2CCCC2)c1 (stereo unspecified); -44.4
10) O=C1NCC(c2cc3ccccc3[nH]c2=O)Nc2ccccc21 (stereo unspecified); 103
11) Cn1cc(C=O)c2ccccc21; 99.3

====

tested on: COLO 205 colon; test: NCI-60 one-dose screen, 48 h (100 = growth as untreated, 0 = no growth, -100 = all killed); settings: 10 µM unless noted
The panel holds about 83,000 compounds, 20% with a hit somewhere; the sample as a whole holds those more often.
Threshold 20%. growth below it: yes (1). growth at it or above: no (0).

1. O=C1c2ccccc2C(=O)c2c(N=Nc3sc(=O)[nH]c3S)cccc21; no (0)
2. C=CCN=C1NC(=O)/C(=C/c2cc(C(C)(C)C)c(O)c(C(C)(C)C)c2)S1; no (0)
3. COC(=O)CCCCN=Cc1c(O)c(O)c(C(C)C)c2cc(C)c(-c3c(C)cc4c(C(C)C)c(O)c(O)c(C=NCCCCC(=O)OC)c4c3O)c(O)c12; yes (1)
4. COc1cc(C2C3=C(COC3=O)Nc3c2ccc2c3CCCC2)cc2c1OCO2 (stereo not given); yes (1)
5. CCCOC(=O)C1(O)CCCC1; no (0)
6. CCOC(=O)c1ccccc1NC(c1ccccc1)c1ccc2cccnc2c1O (stereo not given); yes (1)
7. O=C1Nc2ccc(Br)cc2C1=N/C=c1\[nH]c(=O)/c(=C/c2ccc(Cl)cc2)s1; no (0)
8. O=S(=O)(NCCCNc1nccc(-c2c(-c3ccc(O)cc3)nc3sccn23)n1)c1ccc(F)cc1; yes (1)
9. COc1ccc(/C=C2\C(=O)N(C(=O)c3csc(NC(C)=O)n3)N=C2C)cc1; no (0)
10. CC(C)C[C@H](NC(=O)[C@@H](Cc1ccccc1)n1ccc(Nc2ccccc2)cc1=O)B(O)O; yes (1)

====

system: HOP-62 NSCLC; assay: NCI-60 one-dose screen, 48 h (100 = growth as untreated, 0 = no growth, -100 = all killed); settings: 10 µM unless noted
The panel holds about 83,000 compounds, 20% with a hit somewhere; the sample as a whole holds those more often.
Threshold 80%. growth below it: 1.0. growth at it or above: 0.0.

1) COc1ccc(C(=O)/C=C/c2cccc([N+](=O)[O-])c2)c(OC)c1; 1.0
2) Cc1cccc2cc(/C=C/C(=O)/C=C/c3ccc(Cl)cc3)c(=O)[nH]c12; 1.0
3) O=C1CCCCC=C1C[N+](=O)[O-]; 0.0
4) O=c1oc2c([nH]c3ccc4ccccc4c32)c2ccccc12; 0.0
5) COC(=O)c1cc(-c2cccs2)c(C#N)c(N)c1C#N; 0.0
6) COc1ccc(NC(=O)c2cc3ccccc3nc2Nc2cc(OC)c(OC)c(OC)c2)cc1; 0.0
7) Cc1ccc(OCCn2c(C)nn(-c3ccc(Cl)cc3)c2=O)cc1; 0.0
8) CCC(c1cccc(Br)c1)C(C(=O)O)c1ccc(OC)cc1 (stereo unspecified); 0.0
9) COc1ccc(C2NC3=C(CCCC3)C(C#N)(C#N)C2(C#N)C#N)cc1 (stereo unspecified); 0.0
10) O=S(=O)(O)CCl; 0.0
11) CCCCCCCCCCCCCCCCCCOc1cccc(CCOP(=O)(O)OCC[N+](C)(C)C)c1; 1.0
12) Cc1ccc2c(c1)C(C)Cc1c(ncnc1-n1cnc3ccccc31)N2C (stereo unspecified); 1.0
13) CC(C)[C@H](CO)Nc1nc(Nc2ccc(C(=O)NCCNS(=O)(=O)c3cccc4c(N(C)C)cccc34)c(Cl)c2)c2ncn(C(C)C)c2n1; 1.0
14) CC(C)(C)OC(=O)N1C/C(=C\c2cccs2)C(=O)/C(=C/c2cccs2)C1; 0.0
15) CC/C=C\C[C@H](O)C/C=C1/C(=O)C(Cl)=C[C@@H]1C/C=C\CCCC(=O)O; 0.0
16) OC1CC2c3ccccc3C1c1ccccc12 (stereo unspecified); 0.0
17) COc1cc(C(=O)N2CCN(C(=O)c3ccco3)CC2)c(N)cc1OCc1ccccc1; 0.0
18) COc1ccc(-c2nc3sccn3c2-c2ccnc(NCCCNS(=O)(=O)c3ccc4ccccc4c3)n2)cc1; 0.0
19) CS(=O)(=O)N(c1cc(-c2ccc3ncnc(Nc4cccc(Cl)c4)c3c2)cnc1Cl)S(C)(=O)=O; 1.0
20) CCN(CC)CCSc1c2ccc(Cl)cc2nc2ccc(OC)cc12; 1.0
21) COc1cccc(-c2nc3sccn3c2-c2ccnc(NCCCNS(=O)(=O)c3ccc(F)cc3)n2)c1; 0.0
22) Cc1ccc(Cn2c(-c3nonc3N)nc3ccccc32)cc1; 1.0
23) CCNC(=O)CCCCC(=O)c1c(C)[nH]c(/C=C2\N=C(c3ccc[nH]3)C=C2OC)c1C; 1.0
24) O=C(Nc1ccccc1)OCC1OCOC(COC(=O)Nc2ccccc2)C1OC(=O)Nc1ccccc1 (stereo unspecified); 1.0
25) c1cc(-c2ccc3c(c2)OCO3)n2nccc2n1; 0.0
26) COc1cc(CCn2nnc3c(Nc4ccc(N5CCOCC5)cc4)ncnc32)cc(OC)c1; 0.0
27) Cn1c(C(N)=O)cc2c1-c1nc(NC3CCCCC3)ncc1CCC2; 0.0
28) COc1cc(NCCCN=C(N)NC(N)=NC(C)C)c2ncccc2c1; 0.0
29) O=C(O)Cc1ccc2c(c1)Cc1cccnc1O2; 0.0
30) Clc1ccc(-c2nc(-c3ccco3)cn3ccnc23)cc1; 1.0
31) COc1ccc(S(=O)(=O)N2CCN(c3cc4c(cc3F)c(=O)c(C(=O)O)cn4C3CC3)CC2)c(OC)c1; 0.0
32) COc1ccc(C(=O)/C=C/c2ccc(/C=C/c3cc(OC)c(OC)c(OC)c3)cc2)cc1; 1.0
33) COc1cc(C(=O)/C=C/c2cc(C(=O)c3cc(OC)c(OC)c(OC)c3)ccc2OC)ccc1N; 1.0
34) C=C1C(=O)O[C@H]2[C@H]1CC/C(COC(=O)NCc1cc(OC)cc(OC)c1)=C\CC[C@@]1(C)O[C@@H]21; 1.0
35) COc1ccc(C2SCC(=O)N2NC(=O)c2ccc(NC(=O)c3ccccn3)cc2)cc1OC (stereo unspecified); 0.0
36) Nc1c(C(=O)Nc2ccccc2)sc2nc3c(cc12)CCCCC3; 1.0
37) COc1cc(C2C=C(C)N=C3SC=C(C)N32)cc(OC)c1OC (stereo unspecified); 1.0
38) O=C(Nc1cccc(C(F)(F)F)c1)Nc1ccc(OCc2nnc(-c3ccccc3)o2)c(F)c1; 1.0
39) C[C@]12CC[C@@H]3c4cc(O)c(O)cc4CC[C@H]3[C@@H]1CC[C@@H]2O; 1.0
40) COc1ccc(/C=C2\C(=O)N(C(=O)c3csc(NC(C)=O)n3)N=C2C)cc1; 0.0
